Data origin, for the record: ChEMBL document CHEMBL5338791

TGT: S-phase kinase-associated protein 2/Cyclin-dependent kinases regulatory subunit 1/S-phase kinase-associated protein 1 (Homo sapiens, UniProt Q13309)
Sequence (P61024 whole entry): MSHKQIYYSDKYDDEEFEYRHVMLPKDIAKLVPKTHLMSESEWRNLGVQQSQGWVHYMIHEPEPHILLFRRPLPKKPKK
Sequence (Q13309 whole entry): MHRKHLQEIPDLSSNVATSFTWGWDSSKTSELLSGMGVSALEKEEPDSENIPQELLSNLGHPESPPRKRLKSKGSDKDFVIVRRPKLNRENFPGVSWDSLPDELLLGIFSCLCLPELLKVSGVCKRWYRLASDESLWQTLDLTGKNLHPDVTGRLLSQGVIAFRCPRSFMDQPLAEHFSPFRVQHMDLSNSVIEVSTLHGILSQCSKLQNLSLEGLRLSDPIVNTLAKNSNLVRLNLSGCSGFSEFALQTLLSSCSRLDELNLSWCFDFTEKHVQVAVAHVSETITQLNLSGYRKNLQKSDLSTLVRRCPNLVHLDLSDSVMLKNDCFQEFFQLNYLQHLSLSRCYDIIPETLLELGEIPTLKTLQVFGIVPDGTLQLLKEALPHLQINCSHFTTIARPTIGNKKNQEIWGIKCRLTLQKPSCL
Sequence (P63208 whole entry, further chain): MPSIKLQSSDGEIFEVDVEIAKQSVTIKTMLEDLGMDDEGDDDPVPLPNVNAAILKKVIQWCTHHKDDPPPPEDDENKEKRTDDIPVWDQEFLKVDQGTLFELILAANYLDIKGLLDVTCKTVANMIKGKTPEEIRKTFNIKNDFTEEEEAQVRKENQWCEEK
PROTOCOL: Inhibition of GST-tagged Skp2/Skp1 (unknown origin)/His6-tagged Cks1 (unknown origin) interaction preincubated with Skp2/Skp1 for 10 mins followed by Cks1 addition measured after 20 mins by HTRF assay
Assay type: protein assay
REPORTED_PROPERTY: IC50

{"columns": ["CHEMICAL_STRUCTURE", "IC50"],
 "data": [
  ["CN(C)CCN(C)c1cnc(-c2ccccc2)c(-c2ccccc2)n1", "> 50 µM"],
  ["O=C(CCCl)N1CCN(c2cnc(-c3ccccc3)c(-c3ccccc3)n2)CC1", "> 25 µM"]
]}

Go through the items and report each one's IC50.
1. O=C(c1cccs1)N1CCN(c2cnc(-c3ccccc3)c(-c3ccccc3)n2)CC1
2. CC(C)COC(=O)NC1CCN(c2cnc(-c3ccccc3)c(-c3ccccc3)n2)CC1

### Response
> 25 µM
> 25 µM
